Values from the supplement of paper PMC8728848

target: Neu5Ac(a2-8)Neu5Ac(a2-8)Neu5Ac(a2-3)[GalNAc(b1-4)]Gal(b1-4)Glc; test: glycan array binding signal (z-score within array); higher = stronger binding; details: glycan notation: IUPAC condensed, linker removed
Many of the other results were omitted from the sample, so the strongest signals are more common in it than they were.
Assay readout: glycan array binding signal (z-score)
Please state the value as a number alone, without comment.

For the binder PfulAvr4 (Pseudocercospora fuligena) (protein) HHHHHHDYKDDDDKTYVQDKTPAFVCPAADIKTTKCLGPKDCLYPSPKTCNGYIQCSPADDSYLTGIIHEMPCPSGLLWNDNKKWCDWPENTTCGLVKSAGATEVDATKQGPTPGKYHG , what glycan array binding signal (z-score) is on record?
-0.132
